The origin of these recorded values is patent US20170072062A1.

# Study system: type V tartrate-resistant acid phosphatase (TRAP) protein, immobilised on CM5 sensor chip
# Procedure summary: SPR, TRAP on CM5 chip, binding curve fit
Measured attribute: Kd (µM)
One number for each entry, in µM.

Query :: Give the value of Kd reported for the following: TPLSYLKGLVTVG [TRAP-binding peptide (TBP)]
Result :: 700
